Reference source: ChEMBL document CHEMBL6134788

Test system: Acinetobacter baumannii
method-summary: Antibacterial activity against multi-drug resistant Acinetobacter baumannii Naval-81 assessed as inhibition of bacterial growth incubated for 16 to 18 hrs by CLSI protocol based method
Type: functional
details: time 16-18 hrs, read-out: MIC100

# molecule, MIC
data = [
    ("N#Cc1ccc(NNC(=O)CCN2C(=O)c3cccc4cccc(c34)C2=O)cc1", "2 µg/mL"),
    ("C[C@@H](O)[C@H]1C(=O)N2C(C(=O)O)=C(S[C@@H]3CN[C@H](C(=O)N(C)C)C3)[C@H](C)[C@H]12 [MEROPENEM]", "4 µg/mL"),
    ("O=C(CCN1C(=O)c2cccc3cccc(c23)C1=O)NNc1ccc(Cl)cc1", "1 µg/mL"),
    ("CN(C)c1ccc(O)c2c1C[C@H]1C[C@H]3[C@H](N(C)C)C(O)=C(C(N)=O)C(=O)[C@@]3(O)C(O)=C1C2=O [MINOCYCLINE]", "1 µg/mL"),
    ("O=C(CCN1C(=O)c2cccc3cccc(c23)C1=O)NNc1ccc(F)cc1", "2 µg/mL"),
    ("O=C(CCN1C(=O)c2cccc3cccc(c23)C1=O)NNc1ccc(Br)cc1", "0.5 µg/mL"),
]

====

Test system: Acinetobacter baumannii
method-summary: Antibacterial activity against multi-drug resistant Acinetobacter baumannii clinical isolate 1 assessed as inhibition of bacterial growth incubated for 16 to 18 hrs by CLSI protocol based method
Type: functional
details: time 16-18 hrs, read-out: MIC100
class 1 if MIC is below 2 µg/mL. class 0 if not; exact matches included in class 0.

# compound, assay-system, category-label
data = [
    ("O=C(CCN1C(=O)c2cccc3cccc(c23)C1=O)NNc1ccc(Cl)cc1", "Acinetobacter baumannii", "class 1"),
    ("N#Cc1ccc(NNC(=O)CCN2C(=O)c3cccc4cccc(c34)C2=O)cc1", "Acinetobacter baumannii", "class 1"),
    ("O=C(CCN1C(=O)c2cccc3cccc(c23)C1=O)NNc1ccc(Br)cc1", "Acinetobacter baumannii", "class 1"),
    ("C[C@H]1COc2c(N3CCN(C)CC3)c(F)cc3c(=O)c(C(=O)O)cn1c23 [LEVOFLOXACIN ANHYDROUS]", "Acinetobacter baumannii", "class 0"),
    ("C[C@@H](O)[C@H]1C(=O)N2C(C(=O)O)=C(S[C@@H]3CN[C@H](C(=O)N(C)C)C3)[C@H](C)[C@H]12 [MEROPENEM]", "Acinetobacter baumannii", "class 0"),
]

====

Tested on: Acinetobacter baumannii
method-summary: Antibacterial activity against multi-drug resistant Acinetobacter baumannii clinical isolate 6 assessed as inhibition of bacterial growth incubated for 16 to 18 hrs by CLSI protocol based method
Type: functional
details: time 16-18 hrs, read-out: MIC100
reported-property: MIC

# compound, assay-system, recorded-value
rows = [
    ("C[C@@H](O)[C@H]1C(=O)N2C(C(=O)O)=C(S[C@@H]3CN[C@H](C(=O)N(C)C)C3)[C@H](C)[C@H]12", "Acinetobacter baumannii", "> 64 µg/mL"),
    ("O=C(CCN1C(=O)c2cccc3cccc(c23)C1=O)NNc1ccc(Br)cc1", "Acinetobacter baumannii", "0.5 µg/mL"),
    ("O=C(CCN1C(=O)c2cccc3cccc(c23)C1=O)NNc1ccc(Cl)cc1", "Acinetobacter baumannii", "2 µg/mL"),
    ("C[C@H]1COc2c(N3CCN(C)CC3)c(F)cc3c(=O)c(C(=O)O)cn1c23 [LEVOFLOXACIN ANHYDROUS]", "Acinetobacter baumannii", "4 µg/mL"),
]

====

The entries below come with measured MIC values attached.
Tested on: Acinetobacter baumannii
method-summary: Antibacterial activity against multi-drug resistant Acinetobacter baumannii clinical isolate 9 assessed as inhibition of bacterial growth incubated for 16 to 18 hrs by CLSI protocol based method
Assay type: functional
details: time 16-18 hrs, read-out: MIC100
reported-property: MIC (µg/mL)

# molecule, assay-system, reported-property, output-unit, sign-qualifier, recorded-value
records = [
    ("O=C(CCN1C(=O)c2cccc3cccc(c23)C1=O)NNc1ccc(F)cc1", "Acinetobacter baumannii", "MIC", "µg/mL", "=", 2),
    ("C[C@@H](O)[C@H]1C(=O)N2C(C(=O)O)=C(S[C@@H]3CN[C@H](C(=O)N(C)C)C3)[C@H](C)[C@H]12", "Acinetobacter baumannii", "MIC", "µg/mL", ">", 64),
    ("N#Cc1ccc(NNC(=O)CCN2C(=O)c3cccc4cccc(c34)C2=O)cc1", "Acinetobacter baumannii", "MIC", "µg/mL", "=", 2),
    ("O=C(CCN1C(=O)c2cccc3cccc(c23)C1=O)NNc1ccc(Cl)cc1", "Acinetobacter baumannii", "MIC", "µg/mL", "=", 1),
    ("CN(C)c1ccc(O)c2c1C[C@H]1C[C@H]3[C@H](N(C)C)C(O)=C(C(N)=O)C(=O)[C@@]3(O)C(O)=C1C2=O", "Acinetobacter baumannii", "MIC", "µg/mL", "=", 4),
    ("O=C(CCN1C(=O)c2cccc3cccc(c23)C1=O)NNc1ccc(Br)cc1", "Acinetobacter baumannii", "MIC", "µg/mL", "=", 0.5),
    ("C[C@H]1COc2c(N3CCN(C)CC3)c(F)cc3c(=O)c(C(=O)O)cn1c23 [LEVOFLOXACIN ANHYDROUS]", "Acinetobacter baumannii", "MIC", "µg/mL", "=", 4),
]

====

Tested on: Acinetobacter baumannii
method-summary: Antibacterial activity against multi-drug resistant Acinetobacter baumannii 5-109 assessed as inhibition of bacterial growth incubated for 16 to 18 hrs by CLSI protocol based method
Format: functional
details: time 16-18 hrs, read-out: MIC100

# compound, output-unit, MIC
data = [
    ("O=C(CCN1C(=O)c2cccc3cccc(c23)C1=O)NNc1ccc(Cl)cc1", "µg/mL", 2),
    ("C[C@@H](O)[C@H]1C(=O)N2C(C(=O)O)=C(S[C@@H]3CN[C@H](C(=O)N(C)C)C3)[C@H](C)[C@H]12 [MEROPENEM]", "µg/mL", 4),
    ("O=C(CCN1C(=O)c2cccc3cccc(c23)C1=O)NNc1ccc(Br)cc1", "µg/mL", 0.5),
    ("CN(C)c1ccc(O)c2c1C[C@H]1C[C@H]3[C@H](N(C)C)C(O)=C(C(N)=O)C(=O)[C@@]3(O)C(O)=C1C2=O [MINOCYCLINE]", "µg/mL", 2),
    ("O=C(CCN1C(=O)c2cccc3cccc(c23)C1=O)NNc1ccc(F)cc1", "µg/mL", 4),
    ("N#Cc1ccc(NNC(=O)CCN2C(=O)c3cccc4cccc(c34)C2=O)cc1", "µg/mL", 2),
]

====

Test system: Acinetobacter baumannii
method-summary: Antibacterial activity against carbapenem-resistant Acinetobacter baumannii BAA 1605 assessed as inhibition of bacterial growth incubated for 16 to 18 hrs by CLSI protocol based method
Assay type: functional
details: time 16-18 hrs, read-out: MIC100
yes if MIC is below 2 µg/mL. no if not; exact matches included in no.

# molecule, category-label
rows = [
    ("O=C(CCN1C(=O)c2cccc3cccc(c23)C1=O)NNc1ccc(Cl)cc1Cl", "no"),
    ("C[C@@H](O)[C@H]1C(=O)N2C(C(=O)O)=C(S[C@@H]3CN[C@H](C(=O)N(C)C)C3)[C@H](C)[C@H]12", "no"),
    ("O=C(CCCCCN1C(=O)c2cccc3cccc(c23)C1=O)NNc1ccccc1", "no"),
    ("O=C(CCN1C(=O)c2cccc3cccc(c23)C1=O)NNc1ccc(Br)cc1", "yes"),
    ("O=C(CCN1C(=O)c2cccc3cccc(c23)C1=O)NNc1ccc(Cl)cc1", "yes"),
    ("O=C(CCN1C(=O)c2cccc3cccc(c23)C1=O)NNc1cccc(Br)c1", "no"),
    ("Cc1ccc(NNC(=O)CCN2C(=O)c3cccc4cccc(c34)C2=O)cc1", "no"),
    ("O=C(CCN1C(=O)c2cccc3cccc(c23)C1=O)NNc1cc(Cl)cc(Cl)c1", "no"),
    ("N#Cc1ccc(NNC(=O)CCN2C(=O)c3cccc4cccc(c34)C2=O)cc1", "yes"),
    ("COc1ccc(NNC(=O)CCN2C(=O)c3cccc4cccc(c34)C2=O)cc1", "no"),
]

====

The entries below come with measured MIC values attached.
Test system: Acinetobacter baumannii
method-summary: Antibacterial activity against carbapenem-resistant Acinetobacter baumannii BAA 1605 assessed as inhibition of bacterial growth incubated for 16 to 18 hrs by CLSI protocol based method
Type: functional
details: time 16-18 hrs, read-out: MIC100

# molecule, MIC
records = [
    ("Cc1ccc(NNC(=O)CCN2C(=O)c3cccc4cccc(c34)C2=O)c(C)c1", "> 64 µg/mL"),
    ("O=C(CCN1C(=O)c2cccc3cccc(c23)C1=O)NNc1ccccc1Br", "> 64 µg/mL"),
    ("O=C(CCN1C(=O)c2cccc3cccc(c23)C1=O)NNc1ccc([N+](=O)[O-])cc1", "4 µg/mL"),
    ("O=C(CCCN1C(=O)c2cccc3cccc(c23)C1=O)NNc1ccccc1", "4 µg/mL"),
    ("O=C(NNc1ccc(Br)cc1)[C@@H](Cc1ccccc1)N1C(=O)c2cccc3cccc(c23)C1=O", "8 µg/mL"),
    ("CN(C)c1ccc(O)c2c1C[C@H]1C[C@H]3[C@H](N(C)C)C(O)=C(C(N)=O)C(=O)[C@@]3(O)C(O)=C1C2=O", "2 µg/mL"),
    ("O=C(CCN1C(=O)c2cccc3cccc(c23)C1=O)NNc1ccccc1Cl", "> 64 µg/mL"),
    ("C[C@H]1COc2c(N3CCN(C)CC3)c(F)cc3c(=O)c(C(=O)O)cn1c23 [LEVOFLOXACIN ANHYDROUS]", "4 µg/mL"),
    ("O=C(CCN1C(=O)c2cccc3cccc(c23)C1=O)NNc1cccc(F)c1", "1 µg/mL"),
    ("CO[C@H]1/C=C/O[C@@]2(C)Oc3c(C)c(O)c4c(O)c(c(/C=N/N5CCN(C)CC5)c(O)c4c3C2=O)NC(=O)/C(C)=C\\C=C\\[C@H](C)[C@H](O)[C@@H](C)[C@@H](O)[C@@H](C)[C@H](OC(C)=O)[C@@H]1C", "4 µg/mL"),
    ("N#Cc1ccc(NNC(=O)CCN2C(=O)c3cccc4c(Br)ccc(c34)C2=O)cc1", "4 µg/mL"),
]
